- experimental-system: TOP-2 enzyme (Homo sapiens, UniProt P11388)
- Construct: purchased TOPOGEN, CO, USA TG1001
- Sequence (P11388 whole entry): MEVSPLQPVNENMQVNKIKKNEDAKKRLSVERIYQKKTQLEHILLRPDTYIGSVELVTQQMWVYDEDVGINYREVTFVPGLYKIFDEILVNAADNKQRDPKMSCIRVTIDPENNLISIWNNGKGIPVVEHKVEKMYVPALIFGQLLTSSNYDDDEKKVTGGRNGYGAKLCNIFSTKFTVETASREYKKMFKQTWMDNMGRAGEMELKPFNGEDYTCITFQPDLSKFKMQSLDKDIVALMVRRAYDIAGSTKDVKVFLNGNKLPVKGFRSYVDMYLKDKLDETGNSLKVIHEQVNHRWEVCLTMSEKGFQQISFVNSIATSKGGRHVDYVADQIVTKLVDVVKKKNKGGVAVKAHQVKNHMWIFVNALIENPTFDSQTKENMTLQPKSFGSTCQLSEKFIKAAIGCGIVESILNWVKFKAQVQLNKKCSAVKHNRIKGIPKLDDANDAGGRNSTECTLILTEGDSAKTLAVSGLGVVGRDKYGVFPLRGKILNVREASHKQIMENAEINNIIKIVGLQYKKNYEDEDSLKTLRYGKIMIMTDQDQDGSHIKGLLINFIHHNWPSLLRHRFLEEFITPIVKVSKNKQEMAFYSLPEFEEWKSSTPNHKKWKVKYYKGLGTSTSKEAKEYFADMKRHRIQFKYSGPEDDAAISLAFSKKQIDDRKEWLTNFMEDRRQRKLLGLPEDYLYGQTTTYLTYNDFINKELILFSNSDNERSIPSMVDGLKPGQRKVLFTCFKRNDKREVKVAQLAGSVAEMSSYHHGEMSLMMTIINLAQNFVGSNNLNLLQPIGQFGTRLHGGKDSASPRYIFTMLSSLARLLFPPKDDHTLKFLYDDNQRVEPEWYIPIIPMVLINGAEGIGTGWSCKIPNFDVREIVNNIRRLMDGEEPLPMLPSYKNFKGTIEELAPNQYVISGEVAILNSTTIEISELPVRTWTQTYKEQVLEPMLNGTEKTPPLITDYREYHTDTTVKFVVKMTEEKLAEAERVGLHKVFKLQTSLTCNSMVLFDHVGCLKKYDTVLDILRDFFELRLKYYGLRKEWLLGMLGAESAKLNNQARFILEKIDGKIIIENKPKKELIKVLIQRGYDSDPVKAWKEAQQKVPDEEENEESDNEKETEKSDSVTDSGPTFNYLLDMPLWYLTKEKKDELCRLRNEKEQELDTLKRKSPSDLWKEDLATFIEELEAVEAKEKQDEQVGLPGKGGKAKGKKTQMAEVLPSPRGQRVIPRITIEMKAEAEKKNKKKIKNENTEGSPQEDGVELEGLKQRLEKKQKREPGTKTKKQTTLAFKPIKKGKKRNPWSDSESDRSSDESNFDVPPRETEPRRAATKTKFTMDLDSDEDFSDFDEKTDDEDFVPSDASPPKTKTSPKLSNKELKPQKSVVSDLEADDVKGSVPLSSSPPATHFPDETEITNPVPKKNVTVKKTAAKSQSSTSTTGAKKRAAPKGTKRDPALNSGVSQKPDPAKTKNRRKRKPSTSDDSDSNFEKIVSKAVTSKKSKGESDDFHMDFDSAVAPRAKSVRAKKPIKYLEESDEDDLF
- test-summary: Topoisomerase II inhibitory assay (TopoGEN plasmid-based kit, DNA decatenation)
- Assay type: biochemical
- measurement-conditions: decatenation of DNA by TOP-2; read-out: IC50 (TOP-2 inhibition)
pIC50: −log10 of the molar value.
measured-property: pIC50

compound	pIC50
CC[C@H]1OC(=O)[C@H](C)[C@@H](O[C@H]2C[C@@](C)(OC)[C@@H](O)[C@H](C)O2)[C@H](C)[C@@H](O[C@@H]2O[C@H](C)C[C@H](N(C)C)[C@H]2O)[C@](C)(OC)C[C@@H](C)C(=O)[C@H](C)[C@@H](O)[C@]1(C)O [CL, clarithromycin]	4.59
CC[C@H]1OC(=O)[C@H](C)[C@@H](O[C@H]2C[C@@](C)(OC)[C@@H](O)[C@H](C)O2)[C@H](C)[C@@H](O[C@@H]2O[C@H](C)C[C@H](N(C)C)[C@H]2O)[C@](C)(O)C[C@@H](C)/C(=N\OCOCCOC)[C@H](C)[C@@H](O)[C@]1(C)O [RO, roxithromycin]	4.88

I. COC1C(O)CC(=O)OC(C)CC=CC=CC(OC2CCC(N(C)C)C(C)O2)C(C)CC(CC=O)C1OC1OC(C)C(OC2CC(C)(O)C(O)C(C)O2)C(N(C)C)C1O (stereo not drawn) [SP, spiramycin]
II. CC[C@H]1OC(=O)[C@H](C)[C@@H](O[C@H]2C[C@@](C)(OC)[C@@H](O)[C@H](C)O2)[C@H](C)[C@@H](O[C@@H]2O[C@H](C)C[C@H](N(C)C)[C@H]2O)[C@](C)(O)C[C@@H](C)C(=O)[C@H](C)[C@@H](O)[C@]1(C)O [ER, erythromycin]
III. COc1cccc2c1C(=O)c1c(O)c3c(c(O)c1C2=O)C[C@@](O)(C(=O)CO)C[C@@H]3O[C@H]1C[C@H](N)[C@H](O)[C@H](C)O1 [DOX, doxorubicin]
IV. CC[C@H]1OC(=O)[C@H](C)[C@@H](O[C@H]2C[C@@](C)(OC)[C@@H](O)[C@H](C)O2)[C@H](C)[C@@H](O[C@@H]2O[C@H](C)C[C@H](N(C)C)[C@H]2O)[C@](C)(O)C[C@@H](C)CN(C)[C@H](C)[C@@H](O)[C@]1(C)O [AZ, azithromycin]
Query: Order the entries by their reported pIC50, beginning at the minimum. // respond by listing labels in the order requested
Response: IV, I, II, III
